# systemName: Histone deacetylase
# assayOverview: Inhibition of HDAC in cisplatin resistant human A2780 cells after 18 hrs by fluorescence assay
# Type: cell-based
readoutLabel: log10(IC50) (log10 of the value in nM)
The base-10 logarithm of IC50, taken with IC50 in nM, is what appears here.

As a guide, the following entries are already answered.
Provide one value: measured log10(IC50) of COc1ccc(NC(=O)NOCCCCCC(=O)NO)cc1
3.76

Provide one value: measured log10(IC50) of Cc1ccccc1C(=O)NOCCCCCC(=O)NO
4.19

Provide one value: measured log10(IC50) of O=C(CCCCCONC(=O)c1ccc(F)cc1)NO
3.30

Provide one value: measured log10(IC50) of Cc1cc(C)cc(C(=O)NOCCCCCC(=O)NO)c1
2.51

Provide one value: measured log10(IC50) of O=C(CCCCCONC(=O)Nc1ccc(F)cc1)NO
3.22

Provide one value: measured log10(IC50) of O=C(CCCCCONC(=O)Nc1ccccc1)Nc1ccccc1O
4.64

Next:
Provide one value: measured log10(IC50) of CC(C)(C)c1ccc(NC(=O)NOCCCCCC(=O)NO)cc1
3.12

====

# systemName: Histone deacetylase
# assayOverview: Inhibition of HDAC in human A2780 cells after 18 hrs by fluorescence assay
# Format: cell-based
Flag rule - IC50 less than 6 µM flags Condition met; the remaining entries get Condition not met.

Criterion: IC50 strictly below 6 µM. Is it met by O=C(CCCCCONC(=O)Nc1ccccc1)Nc1ccccc1O ?
Condition not met

Criterion: IC50 strictly below 6 µM. Is it met by Cc1ccc(C(=O)NOCCCCCC(=O)NO)cc1 ?
Condition met

Criterion: IC50 strictly below 6 µM. Is it met by Nc1ccccc1NC(=O)CCCCCONC(=O)Nc1ccccc1 ?
Condition not met

Criterion: IC50 strictly below 6 µM. Is it met by O=C(CCCCCONC(=O)Nc1cnc2ccccc2c1)NO ?
Condition met

Next:
Criterion: IC50 strictly below 6 µM. Is it met by O=C(CCCCCONC(=O)c1ccc(C(F)(F)F)cc1)NO ?
Condition met

Criterion: IC50 strictly below 6 µM. Is it met by CC(C)c1ccc(C(=O)NOCCCCCC(=O)NO)cc1 ?
Condition met

Criterion: IC50 strictly below 6 µM. Is it met by O=C(O)CCCCCONC(=O)Nc1ccc(F)cc1 ?
Condition not met

====

# systemName: Histone deacetylase 2 (Homo sapiens, UniProt Q92769)
# Sequence (Q92769 whole entry): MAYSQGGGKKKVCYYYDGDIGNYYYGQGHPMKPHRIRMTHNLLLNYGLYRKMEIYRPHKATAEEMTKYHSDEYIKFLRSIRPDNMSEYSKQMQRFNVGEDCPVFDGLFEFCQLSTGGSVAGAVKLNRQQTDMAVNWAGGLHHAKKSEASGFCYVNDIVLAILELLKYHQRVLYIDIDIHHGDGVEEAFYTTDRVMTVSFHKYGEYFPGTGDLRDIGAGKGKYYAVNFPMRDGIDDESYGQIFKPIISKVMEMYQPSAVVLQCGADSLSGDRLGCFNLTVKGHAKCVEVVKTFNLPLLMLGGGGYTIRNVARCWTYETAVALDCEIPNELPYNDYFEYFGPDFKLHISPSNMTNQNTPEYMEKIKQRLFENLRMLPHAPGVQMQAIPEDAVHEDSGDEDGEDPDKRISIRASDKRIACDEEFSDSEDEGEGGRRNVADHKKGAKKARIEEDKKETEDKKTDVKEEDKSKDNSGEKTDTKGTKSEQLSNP
readoutLabel: pIC50
The meaning of pIC50 here: minus log10 of the concentration in molar units.

Fill in: pIC50 on Histone deacetylase 2 (Homo sapiens, UniProt Q92769), entry Cc1cc(C)cc(C(=O)NOCCCCCC(=O)NO)c1
6.06

====

# systemName: Histone deacetylase
# assayOverview: Inhibition of HDAC in human A2780 cells after 18 hrs by fluorescence assay
# Assay type: cell-based
Flag rule - IC50 less than 2000 nM flags condition met; the remaining entries get condition not met.

For orientation, consider the following solved cases.
Criterion: IC50 strictly below 2000 nM. Is it met by Cc1cc(C)cc(C(=O)NOCCCCCC(=O)NO)c1 ?
condition met

Criterion: IC50 strictly below 2000 nM. Is it met by CC(C)(C)c1ccc(NC(=O)NOCCCCCC(=O)NO)cc1 ?
condition met

Criterion: IC50 strictly below 2000 nM. Is it met by Cc1ccc(NC(=O)NOCCCCCC(=O)NO)cc1 ?
condition met

Next:
Criterion: IC50 strictly below 2000 nM. Is it met by Cc1ccccc1NC(=O)NOCCCCCC(=O)NO ?
condition not met

Criterion: IC50 strictly below 2000 nM. Is it met by Cc1ccccc1C(=O)NOCCCCCC(=O)NO ?
condition not met

Criterion: IC50 strictly below 2000 nM. Is it met by CN(O)C(=O)CCCCCONC(=O)Nc1ccccc1 ?
condition not met

Criterion: IC50 strictly below 2000 nM. Is it met by Cc1ccc(C(=O)NOCCCCCC(=O)NO)cc1C ?
condition met

Criterion: IC50 strictly below 2000 nM. Is it met by CC(C)c1ccc(NC(=O)NOCCCCCC(=O)NO)cc1 ?
condition not met

Criterion: IC50 strictly below 2000 nM. Is it met by O=C(O)CCCCCONC(=O)Nc1ccccc1 ?
condition not met

Criterion: IC50 strictly below 2000 nM. Is it met by Cc1cccc(C(=O)NOCCCCCC(=O)NO)c1 ?
condition met

Criterion: IC50 strictly below 2000 nM. Is it met by O=C(CCCCCONC(=O)Nc1ccccc1)NO ?
condition met

Criterion: IC50 strictly below 2000 nM. Is it met by O=C(CCCCCONC(=O)Nc1cccc2ccccc12)NO ?
condition met

====

# Test system: KYSE-510
# assayOverview: Cytotoxicity against cisplatin resistant human KYSE-510 cells after 72 hrs by MTT assay
# Format: functional, cell-based
# conditionParameters: KYSE-510, 72 h
readoutLabel: IC50 (µM)
Just the number in µM, nothing appended.

Provide one value: measured IC50 of Cc1cccc(C(=O)NOCCCCCC(=O)NO)c1
8.21

Provide one value: measured IC50 of Cc1cc(C)cc(C(=O)NOCCCCCC(=O)NO)c1
2.48

Below: the item to evaluate.
Provide one value: measured IC50 of Cc1ccc(C(=O)NOCCCCCC(=O)NO)cc1C
9.46

====

Measured IC50 accompanies every entry in the list below.
# Test system: A2780 CisR (Homo sapiens)
# assayOverview: cells
# conditionParameters: 72 h
Just the number in µM, nothing appended.

As a guide, the following entries are already answered.
Provide one value: measured IC50 of O=C(CCCCCONC(=O)Nc1ccc(F)cc1)NO
9.34

Provide one value: measured IC50 of Cc1ccc(C(=O)NOCCCCCC(=O)NO)cc1
5

Provide one value: measured IC50 of CC(C)(C)c1ccc(NC(=O)NOCCCCCC(=O)NO)cc1
8.8

Next:
Provide one value: measured IC50 of O=C(CCCCCONC(=O)NNc1ccccc1)NO
42.4

Provide one value: measured IC50 of O=C(CCCCCONC(=O)Nc1ccccc1)NO
5.47

Provide one value: measured IC50 of O=C(O)CCCCCONC(=O)Nc1ccc(F)cc1
73.1

Provide one value: measured IC50 of O=C(O)CCCCCONC(=O)Nc1ccccc1
72.5

Provide one value: measured IC50 of COc1ccc(NC(=O)NOCCCCCC(=O)NO)cc1
18.2

====

# systemName: Histone deacetylase
# assayOverview: Inhibition of HDAC in cisplatin resistant human A2780 cells after 18 hrs by fluorescence assay
# Format: cell-based
Measured IC50 accompanies every entry in the list below.
Just the number in µM, nothing appended.

As a guide, the following entries are already answered.
Provide one value: measured IC50 of Cc1cccc(NC(=O)NOCCCCCC(=O)NO)c1
5.38

Provide one value: measured IC50 of O=C(CCCCCONC(=O)NNc1ccccc1)NO
4.95

Provide one value: measured IC50 of Cc1cccc(C(=O)NOCCCCCC(=O)NO)c1
0.9

Next:
Provide one value: measured IC50 of Cc1ccc(NC(=O)NOCCCCCC(=O)NO)cc1
1.43

Provide one value: measured IC50 of Cc1cc(C)cc(NC(=O)NOCCCCCC(=O)NO)c1
4.64

====

# systemName: Protein deacetylase HDAC6 (Homo sapiens)
# Sequence (Q9UBN7 whole entry): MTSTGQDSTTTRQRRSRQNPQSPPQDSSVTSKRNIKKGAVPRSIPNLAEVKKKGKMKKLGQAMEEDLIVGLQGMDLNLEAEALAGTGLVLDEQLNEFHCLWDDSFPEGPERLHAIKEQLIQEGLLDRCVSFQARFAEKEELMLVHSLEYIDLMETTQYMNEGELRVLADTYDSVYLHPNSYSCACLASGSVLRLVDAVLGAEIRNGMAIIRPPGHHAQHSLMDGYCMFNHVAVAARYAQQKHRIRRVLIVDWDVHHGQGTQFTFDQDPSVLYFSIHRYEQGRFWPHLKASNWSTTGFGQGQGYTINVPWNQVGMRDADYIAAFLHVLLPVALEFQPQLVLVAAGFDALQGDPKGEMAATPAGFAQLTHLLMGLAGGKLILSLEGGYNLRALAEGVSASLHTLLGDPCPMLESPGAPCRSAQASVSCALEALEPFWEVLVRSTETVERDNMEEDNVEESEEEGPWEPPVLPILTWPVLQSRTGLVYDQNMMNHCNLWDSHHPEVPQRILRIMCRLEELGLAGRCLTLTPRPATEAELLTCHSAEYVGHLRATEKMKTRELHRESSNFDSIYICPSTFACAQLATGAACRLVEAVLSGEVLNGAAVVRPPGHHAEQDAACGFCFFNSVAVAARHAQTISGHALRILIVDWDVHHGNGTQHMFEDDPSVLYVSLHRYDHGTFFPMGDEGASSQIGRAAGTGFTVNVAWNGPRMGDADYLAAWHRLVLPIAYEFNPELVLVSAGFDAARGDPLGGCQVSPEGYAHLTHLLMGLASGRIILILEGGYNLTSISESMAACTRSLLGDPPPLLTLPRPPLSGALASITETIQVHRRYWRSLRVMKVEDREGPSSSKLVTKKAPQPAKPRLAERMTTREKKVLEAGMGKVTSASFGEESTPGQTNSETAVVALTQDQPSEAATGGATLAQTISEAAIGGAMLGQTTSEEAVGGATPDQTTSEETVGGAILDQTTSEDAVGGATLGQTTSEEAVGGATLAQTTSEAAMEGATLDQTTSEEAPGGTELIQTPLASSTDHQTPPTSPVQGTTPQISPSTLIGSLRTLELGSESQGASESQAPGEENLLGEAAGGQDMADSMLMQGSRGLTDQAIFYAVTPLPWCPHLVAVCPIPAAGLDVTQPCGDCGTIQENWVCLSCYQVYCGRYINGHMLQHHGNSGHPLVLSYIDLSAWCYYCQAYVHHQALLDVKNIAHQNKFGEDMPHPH
readoutLabel: pIC50
The meaning of pIC50 here: minus log10 of the concentration in molar units.

Fill in: pIC50 on Protein deacetylase HDAC6 (Homo sapiens), entry Cc1cccc(C(=O)NOCCCCCC(=O)NO)c1
7.57

====

# systemName: Histone deacetylase
# assayOverview: Inhibition of HDAC in cisplatin resistant human A2780 cells after 18 hrs by fluorescence assay
# Format: cell-based
Measured log10 IC50 accompanies every entry in the list below.
The base-10 logarithm of IC50, taken with IC50 in nM, is what appears here.

As a guide, the following entries are already answered.
Provide one value: measured log10 IC50 of Cc1ccccc1NC(=O)NOCCCCCC(=O)NO
3.95

Provide one value: measured log10 IC50 of O=C(CCCCCONC(=O)c1ccccc1)NO
3.10

Provide one value: measured log10 IC50 of CC(C)c1ccc(C(=O)NOCCCCCC(=O)NO)cc1
2.70

Next:
Provide one value: measured log10 IC50 of O=C(CCCCCONC(=O)c1ccc(C(F)(F)F)cc1)NO
3.29

Provide one value: measured log10 IC50 of Cc1ccc(C(=O)NOCCCCCC(=O)NO)cc1C
2.94

====

# Tested on: KYSE-510
# assayOverview: Cytotoxicity against cisplatin sensitive human KYSE-510 cells after 72 hrs by MTT assay
# Assay type: functional, cell-based
# conditionParameters: KYSE-510, 72 h
Measured pIC50 accompanies every entry in the list below.
The meaning of pIC50 here: minus log10 of the concentration in molar units.

Provide one value: measured pIC50 of Cc1ccc(C(=O)NOCCCCCC(=O)NO)cc1C
5.00

Provide one value: measured pIC50 of Cc1cccc(C(=O)NOCCCCCC(=O)NO)c1
5.09

Below: the item to evaluate.
Provide one value: measured pIC50 of Cc1cc(C)cc(C(=O)NOCCCCCC(=O)NO)c1
5.53
